System: DFO:YxeB-L142-6×His complex
measurement.description: Iron exchange experiment in vitro analysed by RP-HPLC
Assay type: biochemical, Bacillus cereus
condition.description: RP-HPLC; 0.2 nmol/mL metal–substrate added to YxeB:DFO; 40 min incubation
Square brackets hold non-standard residues; d marks the D form. Peptide text beside a SMILES is read from it. Orn(N5-OH,N5-Ac) = CC(=O)N(O)CCC[C@H](N)C(=O)O
readout.kind: FO bound to YxeB (iron transferred to DFO) (nmol/mL sample)
Field: numeric (nmol/mL sample). Do not append units.

- compound: "CC(=O)NCCCCCN(O)C(=O)CCC(=O)NCCCCCN(O)C(=O)CCC(=O)NCCCCCN(O)C(C)=O.[Fe+3]"
  unit.string: "nmol/mL sample"
  value.measured: 0.153
- compound: "C=CC1=C(C)c2cc3[n-]c(cc4[n-]c(cc5nc(cc1n2)C(C)=C5C=C)c(C)c4CCC(=O)O)c(CCC(=O)O)c3C.O.[Fe+2]"
  unit.string: "nmol/mL sample"
  value.measured: 0.003
- compound: "CC(=O)N(O)CCC[C@@H]1NC(=O)CNC(=O)CNC(=O)CNC(=O)[C@H](CCCN(O)C(C)=O)NC(=O)[C@H](CCCN(O)C(C)=O)NC1=O.[Fe+3] [Fch, ferrichrome] (cyclo(GGG[Orn(N5-OH,N5-Ac)][Orn(N5-OH,N5-Ac)][Orn(N5-OH,N5-Ac)]))"
  unit.string: "nmol/mL sample"
  value.measured: 0

Asked: Please report FO bound to YxeB (iron transferred to DFO) for the following compound: O=C([O-])CN(CCN(CC(=O)[O-])CC(=O)[O-])CC(=O)[O-].[Fe+3]
Given back: 0.003
